Taken from patent US8420889B2.

Tested on: recombinant UGT72L1-MBP
Assay: UGT72L1 glucosyltransferase assay with potential acceptor substrates and 14C-UDP-Glucose
Conditions: recombinant MBP-UGT72L1 fusion protein
Measured Endpoint: Km

Value of measured Km for the entry Oc1cc(O)c2c(c1)O[C@H](c1ccc(O)c(O)c1)[C@H](O)C2 [(−)-epicatechin] : 11.5 µM
